protocolDetails: inhibitors of Sendai virus-induced IRF3 signaling, primary screen, TLR/RLR signaling modifier project, cell-based, Sendai virus stimulus, luciferase, 10K MLSCN set (AID 602276);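 note: firefly luciferase from ISG56 promoter only with Renilla not read in this screen; 0% = Sendai virus plus DMSO and 100% = medium plus DMSO without virus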
experimentalSetup: HEK293 RL24 IRF3 luciferase reporter, at 10 µM, stronger effect = higher value
Record form. Attribute: inhibition. Fill in for each entry.
The response must be a number in % with no trailing unit.

I have this compound here, `CCCCc1nccn1CCn1ccnc1CCCC` , and I need its recorded inhibition.
26.7

I have this compound here, `O=c1ccc2cc3c([nH]c4ccc(Br)cc43)oc-2c1O` , and I need its recorded inhibition.
11.2

I have this compound here, `Nc1ccc(C(=O)OCCCc2nc3ccccc3[nH]2)cc1` , and I need its recorded inhibition.
-17.1

I have this compound here, `COc1ccc(N(CC(=O)Nc2cc(C)ccc2C)S(=O)(=O)c2c(C)nn(C)c2C)cc1` , and I need its recorded inhibition.
-2.9

I have this compound here, `CC(C)(C)n1ncc2c(=O)n(CC(=O)NCc3ccc(F)cc3)cnc21` , and I need its recorded inhibition.
-15.8

I have this compound here, `O=C(CN1C(=O)CCSc2ccccc21)Nc1ccccc1` , and I need its recorded inhibition.
-3.3

I have this compound here, COC(=O)C1=C(C)OC(N)=C(C#N)C1c1c(C)nn(-c2ccccc2)c1Cl (stereo unspecified) , and I need its recorded inhibition.
-88.9

I have this compound here, `CC1CCN(C(=O)CN2C(=O)C(C)(C)Oc3ccc(C(=O)NC4CCCC4)cc32)CC1` , and I need its recorded inhibition.
-6.8

I have this compound here, O=C(CCN1C(=O)C2C3C=CC(C3)C2C1=O)NC1CCCc2ccccc21 (stereo unspecified) , and I need its recorded inhibition.
10.7

I have this compound here, `OCCNCCCCOc1ccccc1F` , and I need its recorded inhibition.
-4.78

I have this compound here, Cc1ccc(OCC(O)CN2C(=O)NC(C)(C)C2=O)cc1C (stereo unspecified) , and I need its recorded inhibition.
5.76

I have this compound here, COc1ccc(C(CNC(=O)c2ccc(OCC3CCCO3)cc2)N2CCOCC2)cc1 (stereo unspecified) , and I need its recorded inhibition.
15.9

I have this compound here, `C=CCn1c(=O)c2ccccc2n2c(SCC(=O)Nc3cc(C)on3)nnc12` , and I need its recorded inhibition.
3.33

I have this compound here, Cn1c2c(c(=O)n(C)c1=O)C(c1cccc(Br)c1)C1C(=O)c3ccccc3C1=N2 (stereo unspecified) , and I need its recorded inhibition.
8.12

I have this compound here, COc1ccccc1N1C(=O)CCC1(C#N)c1ccccc1 (stereo unspecified) , and I need its recorded inhibition.
-5.14

I have this compound here, CC(c1ccccc1)n1cnc2ccccc21 (stereo unspecified) , and I need its recorded inhibition.
7.98

I have this compound here, `CCN(CC)CCn1c(=N)n(CCO)c2ccccc21` , and I need its recorded inhibition.
7.52

I have this compound here, `CC(C)(CSc1nncn1N)NS(=O)(=O)c1ccc(Cl)cc1` , and I need its recorded inhibition.
-0.22

I have this compound here, `COc1c(Br)cc2c(C)c(C(=O)O)oc2c1Br` , and I need its recorded inhibition.
9.89

I have this compound here, CCOC(=O)N1CCN(C(c2ccc(Cl)cc2)c2sc3nc(C)nn3c2O)CC1 (stereo unspecified) , and I need its recorded inhibition.
9.66

I have this compound here, `CCn1c(=O)c(=O)[nH]c2cc(C(=O)N3CCN(c4ccccc4F)CC3)ccc21` , and I need its recorded inhibition.
5.11

I have this compound here, COc1cc(NC(=O)C2CCCN2S(=O)(=O)c2cccc3cccnc23)cc(OC)c1OC (stereo unspecified) , and I need its recorded inhibition.
14.4

I have this compound here, `COc1cc(S(=O)(=O)N2CCOCC2)ccc1NC(=O)COC(=O)C12CC3CC(CC(C3)C1)C2` , and I need its recorded inhibition.
8.59

I have this compound here, `O=C(NCc1ccco1)c1cc2cc3ccc(Cl)cc3nc2o1` , and I need its recorded inhibition.
-5.73

I have this compound here, Cc1cc2n(n1)C(c1ccccc1)Nc1ccccc1-2 (stereo unspecified) , and I need its recorded inhibition.
-11.9

I have this compound here, `COC(=O)CCn1nnc(-c2cccs2)n1` , and I need its recorded inhibition.
-2.1

I have this compound here, `CC(=O)Nc1c(C(=O)C2CC2)oc2ccccc12` , and I need its recorded inhibition.
-3.28

I have this compound here, `CCOc1cc(S(=O)(=O)Nc2ccccn2)ccc1F` , and I need its recorded inhibition.
5.64

I have this compound here, `COc1ccc(CNC(=O)c2cc3c(=O)n4ccccc4nc3n(Cc3ccco3)c2=N)cc1` , and I need its recorded inhibition.
14.5

I have this compound here, `COc1ccc(S(=O)(=O)Nc2ccc3c(c2)OCO3)cc1Cl` , and I need its recorded inhibition.
10.6

I have this compound here, COc1ccc(C2CC(c3ccc(Cl)cc3Cl)n3nc(N)nc3N2)cc1 (stereo unspecified) , and I need its recorded inhibition.
9.25

I have this compound here, `COc1ccc(Cn2c(-c3ccco3)nc3oc4ccccc4c(=O)c3c2=O)cc1` , and I need its recorded inhibition.
-1.06

I have this compound here, `Nc1nnnn1NCc1cccc(OCc2ccccc2)c1` , and I need its recorded inhibition.
5.03

I have this compound here, `CCOC(=O)c1c(N)sc(C(=O)N2CCOCC2)c1C` , and I need its recorded inhibition.
16.8

I have this compound here, `COC(=O)c1cc(=O)nc2sc(-c3cccs3)nn12` , and I need its recorded inhibition.
12.6

I have this compound here, `CN(C(=O)c1ccc2c(=O)n3c(nc2c1)CCCCC3)c1ccccc1` , and I need its recorded inhibition.
11.2

I have this compound here, `O=C(CCN1CCc2ccccc2C1)Nc1ccc2c(c1)OCO2` , and I need its recorded inhibition.
6.95

I have this compound here, `COC(=O)c1ccc(-c2ccco2)n1Cc1nc(-c2ccc(OC)c(OC)c2)oc1C` , and I need its recorded inhibition.
12.2

I have this compound here, `CCn1c(=O)cc(OCC(=O)NC2CCCCC2)c2ccccc21` , and I need its recorded inhibition.
1.11

I have this compound here, CC1CCCCC1NC(=O)Cn1nnc(-c2ccc(Cl)cc2)n1 (stereo unspecified) , and I need its recorded inhibition.
-4.91

I have this compound here, `O=C(/C=N/O)NCc1ccncc1` , and I need its recorded inhibition.
8.28

I have this compound here, `CCn1c(NC(=O)c2cccc(Cn3cc(Cl)cn3)c2)nc2ccccc21` , and I need its recorded inhibition.
-3.99

I have this compound here, COc1ccc(C2C(C(=O)c3sc(C)nc3C)=C(O)C(=O)N2CCN(C)C)cc1OC (stereo unspecified) , and I need its recorded inhibition.
-1.16

I have this compound here, CCC1(C(=O)OC)NC(c2cccc(F)c2)C2C(=O)N(C)C(=O)C21 (stereo unspecified) , and I need its recorded inhibition.
14.4

I have this compound here, `Cn1nc(CC(=O)Nc2ccc(N3CCN(C(=O)OC(C)(C)C)CC3)cc2)c2ccccc2c1=O` , and I need its recorded inhibition.
-10.5

I have this compound here, CCOC(=O)C(NC(C)=O)(NS(=O)(=O)c1ccccc1)C(F)(F)F (stereo unspecified) , and I need its recorded inhibition.
10.5

====

targetUnderTest: Dual specificity protein phosphatase 6 (Homo sapiens)
protocolDetails: DUSP6 inhibitors restoring Erk phosphorylation by chemical complementation, primary imaging in DUSP6-transfected HeLa (AID 609);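 note: phospho-Erk level distribution per well compared with pooled transfected vehicle control wells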
experimentalSetup: HeLa MKP-3 transfected, phospho-Erk imaging KS statistic; at 10 µM; stronger effect = higher value; cells stimulated with TPA for 15 min
Activity calls are given as the source filed them.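 How the source made its calls: active means compounds giving at least 50% inhibition in the cell-based MKP-3 phosphatase rescue imaging test; inactive means the rest.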
propertyName: inhibition

I have this compound here, OC1(C2(O)CC(c3ccccc3)ON2)CCCCC1 (configuration not stated) , and I need its recorded inhibition.
-5.81% (inactive)

I have this compound here, `Nc1ccc2oc(-c3ccccc3Cl)nc2c1` , and I need its recorded inhibition.
-7.67% (inactive)

I have this compound here, `O=C(NCc1ccco1)c1ccc(=O)[nH]n1` , and I need its recorded inhibition.
28.1% (inactive)

I have this compound here, `O=C(OCCN1CCOCC1)c1ccc2c(c1)OCCO2` , and I need its recorded inhibition.
-9.53% (inactive)

I have this compound here, `O=C(Nc1nnc(SCc2ccccc2F)s1)c1ccco1` , and I need its recorded inhibition.
5.35% (inactive)

I have this compound here, `Cc1cccn2c(=O)c(/C=C(\C#N)S(=O)(=O)c3ccccc3)c(N3CCN(C)CC3)nc12` , and I need its recorded inhibition.
7.7% (inactive)

I have this compound here, `CCn1c(SCC(=O)NCc2ccco2)nnc1-c1ccc(N)cc1` , and I need its recorded inhibition.
-3.95% (inactive)

I have this compound here, `Cc1c(O)c(CN2CCCC2)cc2c1oc(=O)c1ccccc12` , and I need its recorded inhibition.
-8.95% (inactive)

I have this compound here, `Nc1nnnn1/N=C/c1cccc(Oc2ccccc2)c1` , and I need its recorded inhibition.
21% (inactive)

I have this compound here, `CCCCCSc1nc(N2CCOCC2)c2c(c1C#N)CC(C)(C)OC2` , and I need its recorded inhibition.
-11.4% (inactive)

I have this compound here, `O=S(=O)(c1cccc(-c2csc(-c3ccccc3)n2)c1)N1CCOCC1` , and I need its recorded inhibition.
-2.29% (inactive)

I have this compound here, COc1ccc(C2NC(=O)NC(O)(C(F)(F)F)C2C(=O)c2ccc(F)cc2)cc1 (configuration not stated) , and I need its recorded inhibition.
-0.674% (inactive)
